# Test system: CCRIS mutagenicity, Ames/micronucleus/aberration tests
# assay_comment: CCRIS mutagenicity studies
# particulars: Test System: AMES SALMONELLA TYPHIMURIUM; Strain/Indicator: TA100; Metabolic Activation: HAMSTER, LIVER, S-9, AROCLOR 1254; Method: PREINCUBATION
Activity calls are given as the source filed them. The rule behind the calls is not given here.
// one of true (1) = active, false (0) = inactive, no free text

As a guide, the following entries are already answered.
> print(dat)
               compound  classification
1      O=C(Cl)c1ccccc1F        true (1)
2  CCOc1ccc(NC(N)=O)cc1       false (0)

input: Hello, I am checking results. What call was entered for `OC1CCCCC1` ?
output: false (0)

input: // param item: `Clc1cccc(Cl)c1` ; yields the recorded call
output: false (0)

input: GET /call?item= `C1COCOC1` returns the recorded outcome of this test.
output: false (0)

input: Identify the outcome logged in this assay for the compound shown: `C=CCc1ccc(O)c(OC)c1`
output: false (0)

input: For `C=CCc1ccc(OC)c(OC)c1` , which call appears in the assay record?
output: false (0)

input: Hi team, can someone confirm the assay call for `COc1cc(-c2ccc(N)c(OC)c2)ccc1N` ?
output: false (0)

input: State the result this test recorded for `[CH3][Pb]([CH3])([CH3])[CH3]` .
output: false (0)

input: Could you check what this test reported for C=CC1CC=CCC1 (stereo unspecified) ?
output: false (0)

input: Outcome? O=C(O)C1C(C(=O)O)C2(Cl)C(Cl)=C(Cl)C1(Cl)C2(Cl)Cl (stereo unspecified)
output: false (0)

input: Please indicate how the test categorized `OB(O)O` .
output: false (0)

input: State the result this test recorded for `O=Cc1ccco1` .
output: false (0)

input: What was the test verdict on CCC(Cl)C(Cl)C(Cl)CC(Cl)C(Cl)C(C)Cl (stereo unspecified) ?
output: false (0)

input: Dear colleague, could you share the recorded outcome for CC1CNCC(C)O1 (stereo unspecified) when you have a moment?
output: false (0)

input: Which outcome was entered for the compound `C=C(C)[C@H]1CC=C(C)C(=O)C1` in this test?
output: false (0)

----------
# Test system: CCRIS mutagenicity, Ames/micronucleus/aberration tests
# assay_comment: CCRIS mutagenicity studies
# particulars: Test System: AMES SALMONELLA TYPHIMURIUM; Strain/Indicator: TA100; Metabolic Activation: MOUSE, LIVER, S-9, AROCLOR 1254; Method: STANDARD PLATE
Activity calls are given as the source filed them. How the calls were made is not given here.
Choose the fitting class; nothing outside active, inactive is accepted.

Known results for compounds:
> print(dat)
                                compound  classification
1  COc1cc(-c2ccc(N=C=O)c(OC)c2)ccc1N=C=O        inactive
2                     O=C(CBr)NCc1ccccc1          active
3                   Cc1ccc(NC(=O)CBr)cc1        inactive
4                  CCOc1ccc(NC(C)=O)cc1N        inactive

input: For CC(Br)C(=O)NCc1ccc(Cl)cc1 (configuration not stated) , which call appears in the assay record?
output: active

input: Per the records of this test, what outcome belongs to `CC(=O)c1ccc(S(=O)(=O)NC(=O)NC2CCCCC2)cc1` ?
output: inactive

input: How did this test come out for `Cc1ccc(N)c(C)c1` ?
output: active
